# Assayed target: Sialic acid-binding Ig-like lectin 9 (Homo sapiens) (UniProt Q9Y336)
# Sequence (Q9Y336 whole entry): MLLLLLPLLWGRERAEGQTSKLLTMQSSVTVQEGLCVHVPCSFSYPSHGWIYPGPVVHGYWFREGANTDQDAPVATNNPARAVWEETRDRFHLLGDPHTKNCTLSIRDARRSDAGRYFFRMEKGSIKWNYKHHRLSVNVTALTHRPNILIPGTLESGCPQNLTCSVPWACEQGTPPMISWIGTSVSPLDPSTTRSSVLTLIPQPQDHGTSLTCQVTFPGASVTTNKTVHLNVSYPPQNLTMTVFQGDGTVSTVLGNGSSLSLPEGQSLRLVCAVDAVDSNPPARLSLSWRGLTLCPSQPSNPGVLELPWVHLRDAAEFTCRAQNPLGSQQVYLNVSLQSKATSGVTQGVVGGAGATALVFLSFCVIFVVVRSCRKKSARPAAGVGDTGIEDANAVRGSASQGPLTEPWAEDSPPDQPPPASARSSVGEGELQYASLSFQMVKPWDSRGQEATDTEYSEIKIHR
# Assay overview: Hs-Siglec9 ALPHAscreen SOP 20170721
# Parameters: scale not given: direction of the effect not stated beside the values
# Test parameters: 10 µM
Endpoint label: Percent Effect

{"Compound": "O=C(CN1CCCCC1Cn1cncn1)NCc1ccccn1 (stereo unspecified)", "Assayed target": "Sialic acid-binding Ig-like lectin 9 (Homo sapiens) (UniProt Q9Y336)", "Result": "-1.76%"}
{"Compound": "CN1CCCC1c1ccc(C(=O)N2CCc3ccccc3C2)s1 (stereo unspecified)", "Assayed target": "Sialic acid-binding Ig-like lectin 9 (Homo sapiens) (UniProt Q9Y336)", "Result": "-7.08%"}
{"Compound": "O=C(NCc1cccs1)C1CN(C(=O)c2cccs2)CC12CCOCC2 (stereo unspecified)", "Assayed target": "Sialic acid-binding Ig-like lectin 9 (Homo sapiens) (UniProt Q9Y336)", "Result": "1.33%"}
{"Compound": "Cc1cc(C)n(CC(=O)NC(Cc2ccsc2)c2ccccn2)c(=O)n1 (stereo unspecified)", "Assayed target": "Sialic acid-binding Ig-like lectin 9 (Homo sapiens) (UniProt Q9Y336)", "Result": "12.5%"}
{"Compound": "CN(Cc1ccco1)[C@@H]1CN(C(=O)c2ccnnc2)C[C@@H]2CCCO[C@@H]21", "Assayed target": "Sialic acid-binding Ig-like lectin 9 (Homo sapiens) (UniProt Q9Y336)", "Result": "2.33%"}
{"Compound": "c1cnn(Cc2nnc(C3CCN(C4CCOCC4)CC3)n2C2CC2)c1", "Assayed target": "Sialic acid-binding Ig-like lectin 9 (Homo sapiens) (UniProt Q9Y336)", "Result": "24.9%"}
{"Compound": "CCCc1cc(NC2CCc3ncnn3C2)n2ncnc2n1 (stereo unspecified)", "Assayed target": "Sialic acid-binding Ig-like lectin 9 (Homo sapiens) (UniProt Q9Y336)", "Result": "-5.57%"}
{"Compound": "CN(C)C(=O)CN1CCC2(CCN(Cc3nccs3)CC2)C1=O", "Assayed target": "Sialic acid-binding Ig-like lectin 9 (Homo sapiens) (UniProt Q9Y336)", "Result": "-5.07%"}
{"Compound": "O=C(CO[C@@H]1CC[C@H]2[C@H]1OCCN2CC1CCOCC1)N1CCCC1", "Assayed target": "Sialic acid-binding Ig-like lectin 9 (Homo sapiens) (UniProt Q9Y336)", "Result": "-1.24%"}
{"Compound": "C[C@@H]1C[C@@H]2CCN(C(=O)c3cnccn3)C[C@H]2O1", "Assayed target": "Sialic acid-binding Ig-like lectin 9 (Homo sapiens) (UniProt Q9Y336)", "Result": "-2.15%"}

Turning to the following compound.
Can you share its Percent Effect? I mean this compound: `O=C(CSc1ccccc1Cl)NS(=O)(=O)c1ccc2c(c1)OCCO2` 4.23%
